- tested on: JAK2 (Homo sapiens (Human))
- Sequence (O60674 849-1124): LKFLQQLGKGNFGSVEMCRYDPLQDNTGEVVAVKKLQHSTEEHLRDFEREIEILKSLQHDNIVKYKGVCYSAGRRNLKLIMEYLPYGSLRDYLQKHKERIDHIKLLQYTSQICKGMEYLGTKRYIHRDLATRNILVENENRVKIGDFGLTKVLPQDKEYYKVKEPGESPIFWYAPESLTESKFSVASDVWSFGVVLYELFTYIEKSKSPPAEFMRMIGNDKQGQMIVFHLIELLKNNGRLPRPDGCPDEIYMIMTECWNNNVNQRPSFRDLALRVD
- method description: Jak Biochemical HTRF Assay, JAK2
- run parameters: HTRF biochemical assay, GST-tagged catalytic domain; top concentration tested […]
- Source text: Jak Biochemical HTRF Assay Protocol Subsequent reagent additions employed an Agilent Bravo.
pIC50: −log10 of the molar value.
reported property: pIC50

>  <molecule>
N#CCC1(n2cc(C(N)=O)c(Nc3ccnc(F)c3)n2)CCC(NCc2ccccc2Cl)CC1 (stereo not drawn) [Example 41-16]

>  <reported property>
pIC50

>  <sign>
=

>  <recorded number>
6.04

$$$$
>  <molecule>
CC(C)Oc1cccc(N2CCC(CC#N)(n3cc(C(N)=O)c(Nc4ccc(F)cc4)n3)CC2)n1 [Example 3-15]

>  <reported property>
pIC50

>  <sign>
<

>  <recorded number>
5.83

$$$$
>  <molecule>
N#CCC1(n2cc(C(N)=O)c(Nc3ccnc(F)c3)n2)CCC(Nc2ccc(Cl)cc2)CC1 (stereo not drawn) [Example 40-45]

>  <reported property>
pIC50

>  <sign>
=

>  <recorded number>
6.11

$$$$
>  <molecule>
Cc1cc(Nc2nn(C3(CC#N)CCN(C(=O)OC(C)(C)C)CC3)cc2C(N)=O)ccn1 [Example 9-17]

>  <reported property>
pIC50

>  <sign>
=

>  <recorded number>
6.88

$$$$
>  <molecule>
N#CCC1(n2cc(C(N)=O)c(Nc3ccc(S(=O)(=O)C(F)(F)F)cc3)n2)CCN(C(=O)OCC(F)(F)F)CC1 [Example 10-2]

>  <reported property>
pIC50

>  <sign>
=

>  <recorded number>
8.40

$$$$
>  <molecule>
CC(C)(C)OC(=O)N1CC[C@](CC#N)(n2cc(C(N)=O)c(Nc3ccc(F)cc3)n2)[C@H](F)C1 (racemic) [Example 6-4]

>  <reported property>
pIC50

>  <sign>
=

>  <recorded number>
9.70

$$$$
>  <molecule>
N#CCC1(n2cc(C(N)=O)c(Nc3ccc(F)cc3)n2)CCN(Cc2ccc3cc[nH]c3c2)CC1 [Example 22-56]

>  <reported property>
pIC50

>  <sign>
=

>  <recorded number>
7.34

$$$$
>  <molecule>
Cc1ccc(-c2cccc(Nc3nn(C4(CC#N)CCN(C(=O)OC(C)(C)C)CC4)cc3C(N)=O)c2)cc1 [Example 15-6]

>  <reported property>
pIC50

>  <sign>
=

>  <recorded number>
5.83

$$$$
>  <molecule>
N#CCC1(n2cc(C(N)=O)c(Nc3ccc(S(=O)(=O)C(F)F)cc3)n2)CCC(N2CCC(O)CC2)CC1 (stereo not drawn) [Example 40-43]

>  <reported property>
pIC50

>  <sign>
=

>  <recorded number>
7.85

$$$$
>  <molecule>
N#CCC1(n2cc(C(N)=O)c(Nc3ccnc(F)c3)n2)CCN(Cc2ccc(Cl)cc2)CC1 [Example 22-71]

>  <reported property>
pIC50

>  <sign>
=

>  <recorded number>
8.40

$$$$
>  <molecule>
CS(=O)(=O)c1ccc(Nc2nn(C3(CC#N)CN(C(=O)OC4CCOC4)C3)cc2C(N)=O)cc1 (stereo not drawn) [Example 30-75]

>  <reported property>
pIC50

>  <sign>
=

>  <recorded number>
6.66

$$$$
>  <molecule>
N#CCC1(n2cc(C(N)=O)c(Nc3ccccc3)n2)CCN(C(=O)CO)CC1 [Example 34-35]

>  <reported property>
pIC50

>  <sign>
=

>  <recorded number>
6.61

$$$$
>  <molecule>
N#CCC1(n2cc(C(N)=O)c(Nc3ccc(F)cc3)n2)CCN(C(=O)OC2CCCOC2)CC1 (stereo not drawn) [Example 30-25]

>  <reported property>
pIC50

>  <sign>
=

>  <recorded number>
6.92

$$$$
>  <molecule>
CN1CC(CC#N)(n2cc(C(N)=O)c(Nc3ccccc3)n2)C1 [Example 20]

>  <reported property>
pIC50

>  <sign>
=

>  <recorded number>
5.83

$$$$
>  <molecule>
N#CCC1(n2cc(C(N)=O)c(Nc3ccnc(C4CC4)c3)n2)CCN(C(=O)OCC(F)F)CC1 [Example 9-41]

>  <reported property>
pIC50

>  <sign>
=

>  <recorded number>
6.70

$$$$
>  <molecule>
N#CCC1(n2cc(C(N)=O)c(Nc3ccc(F)cc3)n2)CCN(c2cncc(F)c2)CC1 [Example 3-5]

>  <reported property>
pIC50

>  <sign>
=

>  <recorded number>
8.40

$$$$
>  <molecule>
Cc1cc(N2CCC(CC#N)(n3cc(C(N)=O)c(Nc4ccc(F)cc4)n3)CC2)cnc1F [Example 3-56]

>  <reported property>
pIC50

>  <sign>
=

>  <recorded number>
7.64

$$$$
>  <molecule>
N#CCC1(n2cc(C(N)=O)c(Nc3ccccc3)n2)CCN(C(=O)C2CC2)CC1 [Example 34-1]

>  <reported property>
pIC50

>  <sign>
=

>  <recorded number>
7.80

$$$$
>  <molecule>
N#CCC1(n2cc(C(N)=O)c(Nc3ccnc(F)c3)n2)CCN(Cc2ccccc2Cl)CC1 [Example 22-59]

>  <reported property>
pIC50

>  <sign>
=

>  <recorded number>
8.15

$$$$
>  <molecule>
N#CCC1(n2cc(C(N)=O)c(Nc3ccnc(F)c3)n2)CCC(Nc2ccccc2Cl)CC1 (stereo not drawn) [Example 40-11]

>  <reported property>
pIC50

>  <sign>
=

>  <recorded number>
8.15

$$$$
>  <molecule>
N#CCC1(n2cc(C(N)=O)c(Nc3ccccc3)n2)CCN(C(=O)/C=C/c2cccnc2)CC1 [Example 34-17]

>  <reported property>
pIC50

>  <sign>
=

>  <recorded number>
6.80

$$$$
>  <molecule>
N#CCC1(n2cc(C(N)=O)c(Nc3ccc(F)cc3)n2)CCN(C(=O)OCC2CCC2)CC1 [Example 30-5]

>  <reported property>
pIC50

>  <sign>
=

>  <recorded number>
6.92

$$$$
>  <molecule>
N#CCC1(n2cc(C(N)=O)c(Nc3ccccc3)n2)CCN(Cc2ccc(-c3ccccc3)cc2)CC1 [Example 21-1]

>  <reported property>
pIC50

>  <sign>
=

>  <recorded number>
7.34

$$$$
>  <molecule>
C[C@H]1C[C@](CC#N)(n2cc(C(N)=O)c(Nc3ccccc3)n2)CCN1C(=O)OC(C)(C)C (racemic) [Example 2-10]

>  <reported property>
pIC50

>  <sign>
=

>  <recorded number>
7.68

$$$$
